Biological target: SARS-CoV-2 3CLpro (Severe acute respiratory syndrome coronavirus 2)
Experiment: biochemical
Format: biochemical
Conditions: 4 h, sheet LOPAC_screen_w_protease; primary screen with protease, 5 µM; replicate 1; read-out: Replicate_1
Structures can show the parent of a compound that is named as a salt.
Answer each item with its documented inhibition at 5 µM.
Give your result as the value with the unit written after it.

For orientation, consider the following solved cases.
{"columns": ["compound", "readout value"],
 "data": [
  ["CCCCNc1ccc(C(=O)OCCN(C)C)cc1 [Tetracaine hydrochloride]", "0.225%"],
  ["CN(C)CCCN1c2ccccc2Sc2ccccc21 [Promazine hydrochloride]", "-0.0432%"],
  ["N=C(N)NC(=O)c1nc(Cl)c(N)nc1N [Amiloride hydrochloride]", "-0.488%"]
]}

Parameter requested: inhibition at 5 µM. Apply to each item below.
1. COc1ccc(C2CNC(=O)C2)cc1OC1CCCC1 (centres unmarked)
2. COc1ccccc1N1CCN(CCCNc2cc(=O)n(C)c(=O)n2C)CC1 [Urapidil hydrochloride]
3. CC[C@@H]1C(=O)OC[C@@H]1Cc1cncn1C [Pilocarpine nitrate]

-0.0105%
0.127%
-0.127%

Parameter requested: inhibition at 5 µM. Apply to each item below.
1. CC(=O)Nc1nnc(S(N)(=O)=O)s1 [Acetazolamide]
2. C[N+]1(C)[C@@H]2CC[C@H]1C[C@@H](OC(=O)C(CO)c1ccccc1)C2 (some centres unmarked) [Atropine methyl nitrate]
3. N=C(N)c1ccc(N)cc1 [4-Aminobenzamidine dihydrochloride]

1. 0.216%
2. 0.687%
3. 1.52%
